The reported measurements were obtained from patent US5578639A.

- target-or-system: porcine pancreatic PLA2 (Sus scrofa)
- Construct: purchased Sigma Chemical Company (St. Louis, Mo.); host or cells: porcine pancreas
- Sequence (P00592 23-146): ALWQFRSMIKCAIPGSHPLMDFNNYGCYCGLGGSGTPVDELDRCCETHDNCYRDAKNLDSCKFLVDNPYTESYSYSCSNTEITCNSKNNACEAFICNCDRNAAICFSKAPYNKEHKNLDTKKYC
- protocol-description: Fluorescence assay of porcine pancreatic PLA2 inhibition in vitro
- Assay type: biochemical
- test-conditions: FIG. 12; (P10)2 PC substrate; read-out: IC50 in the fluorescence assay
reported-property: IC50 (µM)
Numeric answer only, unit µM assumed.

query: Item under review: CCCCCCCC/C=C\CCCCCCCC(N)=O [Compound E, (Z)-9-octadecen-amide, reference compound] . Reported IC50?
result: 3

###

- Tested on: plasma lipids
- protocol-description: Plasma lipids in cholesterol-fed rats after oral PLA2 inhibitor
- Type: in vivo
- test-conditions: 100 mg/kg oral gavage, about 8 hours after start of feeding
reported-property: % Change in plasma lipids vs. Control: HDL Chol.

{"compound": "CCCCCCCC/C=C\\CCCCCCCC(N)=O [Compound E, (Z)-9-octadecen-amide, reference compound]", "experimental-value": "2%"}
{"compound": "CCCCCCC(c1ccc(O)c(C)c1)c1ccc(O)c(C)c1", "experimental-value": "1%"}
{"compound": "Cc1ccc(Nc2ccccc2F)c(/C=C/C(=O)O)c1", "experimental-value": "15%"}
{"compound": "Cc1ccc(Nc2cccc(Cl)c2)c(/C=C/C(=O)O)c1", "experimental-value": "2%"}

Now look at this entry.
query: Bench note: what % Change in plasma lipids vs. Control: HDL Chol. did CCCCCCCCCCCn1nnn(Cc2ccccc2)c1=N show?
result: 9%

###

- Tested on: plasma lipids
- protocol-description: Plasma lipids in cholesterol-fed rats after oral PLA2 inhibitor
- Assay type: in vivo
- test-conditions: 100 mg/kg oral gavage, about 8 hours after start of feeding
Quick reference for % Change in plasma lipids vs. Control: non-HDL Chol. among some compounds
Write it as a number; the unit % goes unstated.

Past entries and their recorded results:
{"compound": "CCCCCCC(c1ccc(O)c(C)c1)c1ccc(O)c(C)c1", "target-or-system": "plasma lipids", "experimental-value": -32}
{"compound": "CCCCCCCC/C=C\\CCCCCCCC(N)=O [Compound E, (Z)-9-octadecen-amide, reference compound]", "target-or-system": "plasma lipids", "experimental-value": -56}
{"compound": "Cc1ccc(Nc2ccccc2F)c(/C=C/C(=O)O)c1", "target-or-system": "plasma lipids", "experimental-value": -21}
{"compound": "CCCCCCCCCCCn1nnn(Cc2ccccc2)c1=N", "target-or-system": "plasma lipids", "experimental-value": -44}

Consider now this further compound.
query: Given the compound Cc1ccc(Nc2cccc(Cl)c2)c(/C=C/C(=O)O)c1 , what is its reported % Change in plasma lipids vs. Control: non-HDL Chol.?
result: -20

###

- Test system: plasma lipids
- protocol-description: Plasma lipids in cholesterol-fed rats after oral PLA2 inhibitor
- Format: in vivo
- test-conditions: 100 mg/kg oral gavage, about 8 hours after start of feeding
Outcome label depends on % Change in plasma lipids vs. Control: Total Chol. relative to -20%: at/above gives Met, below gives Not met.

Some entries whose results are on file:
{"compound": "CCCCCCC(c1ccc(O)c(C)c1)c1ccc(O)c(C)c1 [Compound A, 4,4'-heptylidenebis-2-methyl-phenol]", "category": "Not met"}
{"compound": "CCCCCCCCCCCn1nnn(Cc2ccccc2)c1=N [Compound B]", "category": "Not met"}
{"compound": "CCCCCCCC/C=C\\CCCCCCCC(N)=O [Compound E, (Z)-9-octadecen-amide, reference compound]", "category": "Not met"}
{"compound": "Cc1ccc(Nc2ccccc2F)c(/C=C/C(=O)O)c1 [Compound G]", "category": "Met"}

query: API: above_or_equal(metric=% Change in plasma lipids vs. Control: Total Chol., cutoff=-20%) for item Cc1ccc(Nc2cccc(Cl)c2)c(/C=C/C(=O)O)c1 [Compound F]
result: Met

###

Reported pIC50 values follow for various compounds
- target-or-system: porcine pancreatic PLA2 (Sus scrofa)
- Construct: purchased Sigma Chemical Company (St. Louis, Mo.); host or cells: porcine pancreas
- protocol-description: Fluorescence assay of porcine pancreatic PLA2 inhibition in vitro
- Format: biochemical
- test-conditions: porcine pancreatic PLA2, in vitro; read-out: In Vitro IC50 (porc. panc. PLA2)
Expect pIC50 as a plain number equal to -log10 of the molar concentration.

Sample records with pIC50:
{"compound": "CCCCCCCC/C=C\\CCCCCCCC(N)=O [Compound E, (Z)-9-octadecen-amide, reference compound]", "experimental-value": 5.62}
{"compound": "Cc1ccc(Nc2cccc(Cl)c2)c(/C=C/C(=O)O)c1", "experimental-value": 5.07}
{"compound": "CCCCCCC(c1ccc(O)c(C)c1)c1ccc(O)c(C)c1", "experimental-value": 5.66}
{"compound": "Cc1ccc(Nc2ccccc2F)c(/C=C/C(=O)O)c1", "experimental-value": 5.34}

// below: pIC50 requested for another compound
query: Entry under review: CCCCCCCCCCCn1nnn(Cc2ccccc2)c1=N . Reported pIC50?
result: 5.40
